biological target: full-length beta-Catenin (Uniprot ID P35222) (Homo sapiens, UniProt P35222); construct: 10 nM full-length beta-Catenin (Uniprot ID P35222); assay: Fluorescence polarization IC50 (beta-catenin / 5FAM-TCF4 10-53 competition); format: binding; conditions: fluorescence polarization; read-out: beta-Catenin FP IC50
Sequence (P35222 whole entry): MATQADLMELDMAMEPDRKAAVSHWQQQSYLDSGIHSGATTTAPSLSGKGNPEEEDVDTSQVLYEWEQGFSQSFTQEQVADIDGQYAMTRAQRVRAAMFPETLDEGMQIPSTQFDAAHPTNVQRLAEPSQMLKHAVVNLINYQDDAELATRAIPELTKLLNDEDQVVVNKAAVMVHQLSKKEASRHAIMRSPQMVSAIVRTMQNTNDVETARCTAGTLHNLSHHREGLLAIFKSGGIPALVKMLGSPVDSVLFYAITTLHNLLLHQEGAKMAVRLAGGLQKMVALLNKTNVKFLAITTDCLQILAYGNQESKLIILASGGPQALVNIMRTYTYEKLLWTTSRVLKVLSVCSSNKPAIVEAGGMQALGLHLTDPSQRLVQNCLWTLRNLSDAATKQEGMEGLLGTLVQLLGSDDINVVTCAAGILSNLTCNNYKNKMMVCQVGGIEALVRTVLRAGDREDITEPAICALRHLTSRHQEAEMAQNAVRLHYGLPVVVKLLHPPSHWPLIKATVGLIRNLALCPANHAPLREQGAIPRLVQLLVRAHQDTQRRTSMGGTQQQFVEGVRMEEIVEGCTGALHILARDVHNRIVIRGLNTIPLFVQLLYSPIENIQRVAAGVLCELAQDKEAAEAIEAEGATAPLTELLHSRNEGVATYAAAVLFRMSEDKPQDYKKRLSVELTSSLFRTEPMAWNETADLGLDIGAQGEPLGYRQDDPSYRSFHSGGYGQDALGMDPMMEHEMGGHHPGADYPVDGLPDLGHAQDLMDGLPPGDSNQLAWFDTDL
Would you kindly list pIC50 for each of these compounds?
One number for each entry, as −log10 of the molar value.

CC(=O)N1CCC[C@]12CC=CCCCC1(CCCC=CCCCOC(=O)N3CC[C@@](C(=O)N[C@@H](Cc4ccsc4)C(=O)N[C@@H](Cc4csc5ccccc45)C(=O)N[C@@H](CCC(N)=O)C(N)=O)(C3)NC(=O)[C@H](CC(C)C)NC(=O)[C@H](Cc3ccccc3)NC(=O)[C@H](C)NC(=O)[C@H](C)NC(=O)[C@H](CC(=O)O)NC(=O)[C@H](CC(=O)O)NC1=O)NC(=O)[C@H](CCCCNC(=O)C13CC4(C)CC(C)(CC(C)(C4)C1)C3)NC(=O)[C@H](CC(=O)O)NC2=O (stereo partly drawn): 7.47
CC(=O)N1CCC[C@]12CC=CCCCC1(CCCC=CCCCOC(=O)N3CC[C@@](C(=O)N[C@@H](Cc4ccsc4)C(=O)N[C@@H](Cc4csc5ccccc45)C(=O)N[C@@H](CCC(N)=O)C(N)=O)(C3)NC(=O)[C@H](Cn3cc(CN(C)C)nn3)NC(=O)[C@H](Cc3ccccc3)NC(=O)[C@H](C)NC(=O)[C@H](C)NC(=O)[C@H](CN(CC(=O)O)CC(F)(F)F)NC(=O)[C@H](CC(=O)O)NC1=O)NC(=O)[C@H](CC(C)(C)C)NC(=O)[C@H](CC(=O)O)NC2=O (stereo partly drawn) [I-1862]: 8.00

Query: Given CC(=O)N1CCC[C@]12CC=CCCCC1(CCCC=CCCCOC(=O)N3CC[C@@](C(=O)N[C@@H](Cc4ccc5ccccc5c4)C(=O)N[C@@H](Cc4csc5ccccc45)C(=O)N[C@@H](CO)C(N)=O)(C3)NC(=O)[C@H]([C@@H](C)O)NC(=O)[C@H](Cc3ccccc3)NC(=O)[C@H](C)NC(=O)[C@H](C)NC(=O)[C@H]([C@@H](C)O)NC(=O)[C@H](CC(=O)O)NC1=O)NC(=O)[C@H](CC(C)(C)C)NC(=O)[C@H](CC(=O)O)NC2=O (stereo partly drawn) , respond with its pIC50.
Response: 5.43
